Hi, quick share: literature Ki data for Carbonic anhydrase 4 (Bos taurus, UniProt Q95323), several sources combined.
measuredParameter: Ki (nM)

compound: C[C@H](CCC(=O)Nc1ccc(S(N)(=O)=O)cc1Br)[C@H]1CC[C@H]2[C@@H]3C(=O)C[C@@H]4CC(=O)CC[C@]4(C)[C@H]3CC(=O)[C@]12C
Ki [nM]: 28
--
compound: Cn1nc(S(N)(=O)=O)s/c1=N/S(=O)(=O)c1ccc(C(=O)OCCO)cc1
Ki [nM]: 14
--
compound: NS(=O)(=O)c1ccc(NC(=O)CN(CC(=O)O)CC(=O)O)c(Br)c1
Ki [nM]: 53
--
compound: CCc1cc(-c2ccccc2)cc(CC)[n+]1CC(=O)NCc1ccc(S(N)(=O)=O)cc1
Ki [nM]: 67
--
compound: NS(=O)(=O)c1ccc(N2C(=O)c3cccnc3C2=O)c(I)c1
Ki [nM]: 70

1 = NS(=O)(=O)c1ccc(NNSC(=S)N2CCOCC2)cc1
2 = NS(=O)(=O)c1ccc(CCNC(=O)Nc2c(F)c(F)c(F)c(F)c2F)cc1
3 = NS(=O)(=O)c1nc2ccc(NC(=O)CN(CCN(CC(=O)O)CC(=O)Nc3ccc4nc(S(N)(=O)=O)sc4c3)CC(=O)O)cc2s1
4 = NS(=O)(=O)c1ccc(NC(=O)CNCC(=O)O)cc1
Data request: Would you mind ranking these compounds by ascending Ki? Thanks in advance for listing the labels in the requested order.
Data returned: 3, 2, 4, 1
(3: 9 nM, 2: 41 nM, 4: 450 nM, 1: 650 nM)

====

The entries that follow carry Ki values tested on the protein given by its sequence, drawn from several published reports.
Target chain: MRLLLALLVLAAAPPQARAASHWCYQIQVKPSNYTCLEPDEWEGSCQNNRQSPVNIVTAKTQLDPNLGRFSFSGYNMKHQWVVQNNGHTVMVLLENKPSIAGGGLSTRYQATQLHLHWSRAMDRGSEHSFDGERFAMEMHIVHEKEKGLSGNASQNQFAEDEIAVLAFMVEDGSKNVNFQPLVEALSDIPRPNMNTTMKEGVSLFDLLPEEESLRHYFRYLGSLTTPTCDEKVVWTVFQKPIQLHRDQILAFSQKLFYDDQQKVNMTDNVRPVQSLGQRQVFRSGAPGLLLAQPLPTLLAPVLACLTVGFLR
measuredParameter: Ki (nM)

smilesRepresentation: NS(=O)(=O)c1ccc(CCNS(=O)(=O)C(F)(F)C(F)(F)C(F)(F)C(F)(F)F)cc1
testedOn: the protein given by its sequence
unitName: nM
measuredValue: 240
--
smilesRepresentation: NS(=O)(=O)c1ccc(N/C(S)=N\CCCC(=O)O)cc1
testedOn: the protein given by its sequence
unitName: nM
measuredValue: 33
--
smilesRepresentation: NS(=O)(=O)c1ccccc1NC(=O)CN(CCN(CCN(CC(=O)O)CC(=O)Nc1ccccc1S(N)(=O)=O)CC(=O)O)CC(=O)O
testedOn: the protein given by its sequence
unitName: nM
measuredValue: 330
--
smilesRepresentation: NS(=O)(=O)c1ccccc1NC(=O)CN(CCN(CC(=O)O)CC(=O)Nc1ccccc1S(N)(=O)=O)CC(=O)O
testedOn: the protein given by its sequence
unitName: nM
measuredValue: 650

a = NS(=O)(=O)c1ccc(NC(=O)C(F)(F)F)cc1
b = C[C@H](CCC(=O)OCCOc1ccc2nc(S(N)(=O)=O)sc2c1)[C@H]1CC[C@H]2[C@@H]3CC[C@@H]4C[C@H](O)CC[C@]4(C)[C@H]3C[C@H](O)[C@]12C
Data request: // select label with min value of measured Ki from [ a , b ] Return value: the label identifying the chosen record.
Data returned: b
(b: 8 nM, a: 2100 nM)

I = NS(=O)(=O)c1ccc(NC(=O)c2c(F)c(F)c(F)c(F)c2F)c(Br)c1
II = NS(=O)(=O)c1nnc(NS(=O)(=O)c2ccc(NC(=O)C(F)(F)C(F)(F)C(F)(F)C(F)(F)C(F)(F)C(F)(F)C(F)(F)C(F)(F)F)cc2)s1
III = CC(=O)Nc1ccc(S(=O)(=O)NCCc2ccc(S(N)(=O)=O)cc2)cc1
Data request: Please give the order of these compounds when sorted by Ki, largest value leading. The response must list the labels following the requested ordering.
Data returned: I, III, II

====

Here, molecules appear alongside Ki reported for the protein given by its sequence in the literature.
Target protein (sequence): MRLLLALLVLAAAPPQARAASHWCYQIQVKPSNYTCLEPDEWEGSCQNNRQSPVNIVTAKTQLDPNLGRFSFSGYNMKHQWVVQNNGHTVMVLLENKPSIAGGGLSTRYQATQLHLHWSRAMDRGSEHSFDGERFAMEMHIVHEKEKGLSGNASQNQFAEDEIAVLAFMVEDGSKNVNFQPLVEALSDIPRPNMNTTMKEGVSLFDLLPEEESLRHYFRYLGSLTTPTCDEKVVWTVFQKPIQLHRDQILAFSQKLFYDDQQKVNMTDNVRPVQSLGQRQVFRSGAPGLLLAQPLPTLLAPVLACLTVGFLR
measuredParameter: Ki (nM)

Study these solved cases before continuing.
molecule: NS(=O)(=O)c1ccc(NNC(=O)CN(CCN(CCN(CC(=O)O)CC(=O)NNc2ccc(S(N)(=O)=O)cc2)CC(=O)O)CC(=O)O)cc1
unitName: nM
Ki: 430
--
molecule: CC(C)c1cc(-c2ccccc2)cc(C(C)C)[n+]1CC(=O)Nc1cccc(S(N)(=O)=O)c1
unitName: nM
Ki: 345
--
molecule: Cc1cc(C)[n+](CC(=O)Nc2nnc(S(N)(=O)=O)s2)c(C)c1
unitName: nM
Ki: 50
--
molecule: Cc1cc(C)[n+](CC(=O)Nc2ccc(S(=O)(=O)Nc3cccc(S(N)(=O)=O)c3)cc2)c(C)c1
unitName: nM
Ki: 86
--
molecule: Cn1nc(S(N)(=O)=O)sc1=NS(=O)(=O)C(F)(F)C(F)(F)C(F)(F)C(F)(F)F
unitName: nM
Ki: 10
--
molecule: CN(CC(=O)NCCc1ccc(S(N)(=O)=O)cc1)C(=N)N
unitName: nM
Ki: 64
--
molecule: NCC(=O)NNc1ccc(S(N)(=O)=O)cc1
unitName: nM
Ki: 300
--
molecule: NCC(=O)NCC(=O)Nc1ccccc1S(N)(=O)=O
unitName: nM
Ki: 240
--
molecule: CC(C)CC(NS(=O)(=O)c1c(F)c(F)c(F)c(F)c1F)C(=O)NO (stereo not drawn)
unitName: nM
Ki: 19
--
molecule: Cc1cc(-c2ccccc2)cc(C)[n+]1CC(=O)OCCOc1ccc2nc(S(N)(=O)=O)sc2c1
unitName: nM
Ki: 16

a = NS(=O)(=O)c1ccc(NS(=O)(=O)c2ccccc2)cc1
b = NS(=O)(=O)c1nc2ccc(N3C(=O)c4cccnc4C3=O)cc2s1
Data request: Please indicate which item has the smaller measured Ki: a versus b Pick one; state its label.
Data returned: b
(b: 9 nM, a: 85 nM)

1 = CCc1cc(-c2ccccc2)cc(CC)[n+]1CC(=O)Nc1nccc(Nc2ccc(S(N)(=O)=O)cc2)n1
2 = NS(=O)(=O)c1nnc(NC(=O)CCNC(=O)CN(CCN(CCN(CC(=O)O)CC(=O)NCCC(=O)Nc2nnc(S(N)(=O)=O)s2)CC(=O)O)CC(=O)O)s1
3 = C[C@H](CCC(=O)NNc1ccc(S(N)(=O)=O)cc1)[C@H]1CC[C@H]2[C@@H]3CC[C@@H]4C[C@H](O)CC[C@]4(C)[C@H]3CC[C@]12C
4 = NS(=O)(=O)c1cc(S(N)(=O)=O)c(NC(=O)CN(CCN(CCN(CC(=O)O)CC(=O)O)CC(=O)O)CC(=O)O)c(Cl)c1Cl
5 = NS(=O)(=O)c1ccc(COC(=O)CN(CCN(CC(=O)O)CC(=O)O)CC(=O)O)cc1
Data request: hey, can you rank those molecules up there by Ki? biggest number first please Answer by naming the labels in the order asked.
Data returned: 3, 5, 1, 4, 2

====

Please find below Ki data on Carbonic anhydrase 4 (Bos taurus) compiled from the literature.
measuredParameter: Ki (nM)

smilesRepresentation: Cn1nc(S(N)(=O)=O)s/c1=N\S(=O)(=O)c1ccc(N)cc1
testedOn: Carbonic anhydrase 4 (Bos taurus)
unitName: nM
measuredValue: 0.8

a = NS(=O)(=O)c1ccccc1NS(=O)(=O)C(F)(F)C(F)(F)C(F)(F)C(F)(F)C(F)(F)C(F)(F)C(F)(F)C(F)(F)F
b = NS(=O)(=O)c1nc2ccc(NC(=O)CN(CCOCCOCCN(CC(=O)O)CC(=O)O)CC(=O)O)cc2s1
Data request: Just curious, which one has the larger Ki reading, a or b ? Field: selected label. Fill in the label of the entry you choose.
Data returned: a
(a: 1200 nM, b: 7 nM)

====

Record set: Ki | the protein given by its sequence | literature, multiple sources.
Target protein (sequence): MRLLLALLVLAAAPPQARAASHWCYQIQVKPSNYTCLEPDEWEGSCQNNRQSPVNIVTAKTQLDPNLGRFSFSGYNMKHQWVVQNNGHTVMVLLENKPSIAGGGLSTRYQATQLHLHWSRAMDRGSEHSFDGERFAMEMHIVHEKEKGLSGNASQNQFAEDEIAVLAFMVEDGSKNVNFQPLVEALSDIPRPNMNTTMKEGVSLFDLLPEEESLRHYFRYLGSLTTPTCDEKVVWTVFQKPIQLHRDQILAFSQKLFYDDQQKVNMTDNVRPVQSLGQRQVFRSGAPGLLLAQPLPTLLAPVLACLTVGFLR
measuredParameter: Ki (µM)

compound: CC(C)c1cc(-c2ccccc2)cc(C(C)C)[n+]1CC(=O)Nc1cc(Cl)c(S(N)(=O)=O)cc1S(N)(=O)=O
testedOn: the protein given by its sequence
unitName: µM
Ki: 0.046
//
compound: NS(=O)(=O)c1ccc(NS(=O)(=O)C(F)(F)F)c(Br)c1
testedOn: the protein given by its sequence
unitName: µM
Ki: 47
//
compound: NS(=O)(=O)c1ccc(NCc2cc(=O)oc3cc(Cl)ccc23)c(Br)c1
testedOn: the protein given by its sequence
unitName: µM
Ki: 0.078

1 = CNCC(=O)Nc1ccc(S(N)(=O)=O)cc1I
2 = C[C@H](CCC(=O)OCc1ccc(S(N)(=O)=O)cc1)[C@H]1CC[C@H]2[C@@H]3CC[C@@H]4C[C@H](O)CC[C@]4(C)[C@H]3CC[C@]12C
3 = NS(=O)(=O)c1ccc(NC(=O)c2c(F)c(F)c(F)c(F)c2F)cc1
4 = CC(C)CC(C(=O)NO)N(Cc1ccccc1)S(=O)(=O)C(F)(F)C(F)(F)C(F)(F)C(F)(F)F (stereo not drawn)
Data request: Please list the entries, largest Ki first. Would you mind listing the labels in the order asked for?
Data returned: 3, 2, 4, 1
(3: 0.6 µM, 2: 0.313 µM, 4: 0.139 µM, 1: 0.07 µM)

a = CCCC(CCC)C(=O)NNc1ccc(S(N)(=O)=O)cc1
b = NS(=O)(=O)c1ccc(NC(=O)CN(CCN(CC(=O)O)c2ccccc2O)c2ccccc2O)c(I)c1
c = NS(=O)(=O)c1ccc(NC(=O)CNCCNCC(=O)O)c(Br)c1
Data request: Hey, can you sort those compounds up there by Ki, smallest first? # answer = labels listed in requested order
Data returned: c, b, a
(c: 0.054 µM, b: 0.09 µM, a: 0.95 µM)

I = CCNC1CC(C)S(=O)(=O)c2sc(S(=O)(=O)NC(=O)CNC)cc21 (stereo not drawn)
II = NS(=O)(=O)c1ccc(NC(=O)CN(CCN(CC(=O)O)c2ccccc2O)c2ccccc2O)c(F)c1
III = CC(=O)Nc1ccc(S(=O)(=O)Nc2nnc(S(N)(=O)=O)s2)cc1I
IV = COCCOC(=O)c1cccc(S(=O)(=O)Nc2nnc(S(N)(=O)=O)s2)c1
Data request: Number of compounds to sort: 4. Sort criterion: Ki, ascending. Output the labels ranked as instructed.
Data returned: III, IV, I, II

I = NS(=O)(=O)c1ccc(CCNC(=O)CN(CCOCCOCCN(CC(=O)O)CC(=O)O)CC(=O)O)cc1
II = NS(=O)(=O)c1cc(S(N)(=O)=O)c(NC(=O)CN(CCN(CC(=O)O)CC(=O)O)CC(=O)O)c(Cl)c1Cl
Data request: Of I and II , which shows the smaller Ki value? Write down the label attached to your selection.
Data returned: I
(I: 0.032 µM, II: 0.096 µM)
